Source of measurements: a melting point compilation (Tetko et al.; mined from patent text by program, amines drawn as free bases though some values may be those of a salt)

This listing pairs compounds with measured melting point.

Worked examples, 4 compounds total:
C=CCOc1ccc(C(=O)C=Cc2cc(OC)cc(OC)c2)cc1
88.5 to 90 °C
CN1C(=O)CCC(C)(C)c2cc(Nc3ncc(Cl)c(N[C@@H]4CCCC[C@H]4NS(C)(=O)=O)n3)ccc21
165 °C
Cc1c(-c2cccnc2)n(Cc2ccc(C(=O)O)cc2)c2ccccc12
273 to 275 °C
CN(CCc1ccc([N+](=O)[O-])cc1)C1Cc2ccc([N+](=O)[O-])cc2C1 (stereo not given)
138 to 141 °C

**Query** I am curious: what melting point value has been reported for c1ccc2oc(SSCCSSc3nc4ccccc4o3)nc2c1 ?
**Result** 124 to 125 °C
